# tested-target: PBP3 from Escherichia coli (K-12) (Escherichia coli, UniProt P0AD68)
# Sequence (P0AD68 1-577): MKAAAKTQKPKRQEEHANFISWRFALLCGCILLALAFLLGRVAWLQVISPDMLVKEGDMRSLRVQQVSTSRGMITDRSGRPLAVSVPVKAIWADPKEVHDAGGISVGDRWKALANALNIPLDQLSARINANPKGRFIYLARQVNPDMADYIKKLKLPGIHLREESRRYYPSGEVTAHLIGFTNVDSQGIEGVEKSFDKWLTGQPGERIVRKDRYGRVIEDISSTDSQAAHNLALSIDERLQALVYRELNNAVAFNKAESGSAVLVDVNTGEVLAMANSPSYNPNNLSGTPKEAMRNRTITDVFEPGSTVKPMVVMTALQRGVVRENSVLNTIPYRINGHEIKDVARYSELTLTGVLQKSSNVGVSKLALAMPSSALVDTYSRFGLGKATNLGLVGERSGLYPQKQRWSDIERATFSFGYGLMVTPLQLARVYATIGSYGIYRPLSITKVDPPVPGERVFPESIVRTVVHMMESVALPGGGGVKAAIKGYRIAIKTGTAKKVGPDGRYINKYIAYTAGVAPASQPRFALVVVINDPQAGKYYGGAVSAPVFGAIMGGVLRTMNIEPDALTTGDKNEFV
# experimental-protocol: Bocillin-FL fluorescence polarization competition binding, E. coli PBP3
Provide the recorded EC50 for the entries that follow.

Hi, could you look up EC50 for each item in my list?
1. Cn1cccc(C(=O)N[C@@H](C(=O)N[C@H]2Cc3cccc(C(=O)O)c3OB2O)c2ccc(P(=O)(O)O)cc2)c1=O (single isomer, unassigned) [Example 182]
2. CC(C)C(=O)NC(C(=O)N[C@H]1Cc2cccc(C(=O)O)c2OB1O)c1ccc(P(=O)(O)O)cc1 (some centres unmarked) [Example 28]
3. O=C(NCCCN1CCN(C(=O)NC(C(=O)N[C@H]2Cc3ccc(F)c(C(=O)O)c3OB2O)c2cc(F)c(O)c(O)c2Cl)C(=O)C1=O)c1cc(O)cc(F)c1 (some centres unmarked) [Example 410]
4. O=C(O)c1cccc2c1OB(O)[C@@H](NC(=O)[C@@H](NC(=O)c1cnc3n(c1=O)CCS3)c1ccc(P(=O)(O)O)cc1)C2 (single isomer, unassigned) [Example 196]
5. O=C(NCCS(=O)(=O)N1CCN(C(=O)N[C@@H](C(=O)N[C@H]2Cc3ccc(F)c(C(=O)O)c3OB2O)c2cc(F)c(O)c(O)c2Cl)C1=O)Nc1ccncc1 [Example 290]

Response line:
1: < 10 µM; 2: 50 to 250 µM; 3: < 10 µM; 4: > 250 µM; 5: < 10 µM

Hi, could you look up EC50 for each item in my list?
1. CN(CCN1CCN(C(=O)N[C@@H](C(=O)N[C@H]2Cc3ccc(F)c(C(=O)O)c3OB2O)c2cc(F)c(O)c(O)c2Cl)C(=O)C1=O)Cc1cncc(O)c1 [Example 208]
2. CC(=O)NC(C(=O)N[C@H]1Cc2cccc(C(=O)O)c2OB1O)c1ccc(P(=O)(O)O)cc1 (some centres unmarked) [Example 26]
3. CS(=O)(=O)N1CCN(C(=O)N[C@@H](C(=O)N[C@H]2Cc3ccc(F)c(C(=O)O)c3OB2O)c2ccc(P(=O)(O)O)c(F)c2)C1=O (single isomer, unassigned) [Example 19]
4. O=C(N[C@H](C(=O)N[C@H]1Cc2cccc(C(=O)O)c2OB1O)c1ccc(P(=O)(O)O)cc1)c1ccc(C(F)(F)F)cn1 (single isomer, unassigned) [Example 192]

Response line:
1: < 10 µM; 2: 50 to 250 µM; 3: < 10 µM; 4: 10 to 50 µM

Hi, could you look up EC50 for each item in my list?
1. CN1CCC[C@@H]1C(=O)N[C@@H](C(=O)N[C@H]1Cc2cccc(C(=O)O)c2OB1O)c1ccc(P(=O)(O)O)cc1 (racemic) [Example 54]
2. O=C(NCCCN1CCN(C(=O)NC(C(=O)N[C@H]2Cc3ccc(F)c(C(=O)O)c3OB2O)c2cc(F)c(O)c(O)c2Cl)C(=O)C1=O)c1cc(O)c(F)c(O)c1F (some centres unmarked) [Example 415]

Response line:
["50 to 250 µM", "10 to 50 µM"]

###

# tested-target: PBP3 from Pseudomonas aeruginosa (PAO1) (Pseudomonas aeruginosa, UniProt G3XD46)
# Sequence (G3XD46 whole entry): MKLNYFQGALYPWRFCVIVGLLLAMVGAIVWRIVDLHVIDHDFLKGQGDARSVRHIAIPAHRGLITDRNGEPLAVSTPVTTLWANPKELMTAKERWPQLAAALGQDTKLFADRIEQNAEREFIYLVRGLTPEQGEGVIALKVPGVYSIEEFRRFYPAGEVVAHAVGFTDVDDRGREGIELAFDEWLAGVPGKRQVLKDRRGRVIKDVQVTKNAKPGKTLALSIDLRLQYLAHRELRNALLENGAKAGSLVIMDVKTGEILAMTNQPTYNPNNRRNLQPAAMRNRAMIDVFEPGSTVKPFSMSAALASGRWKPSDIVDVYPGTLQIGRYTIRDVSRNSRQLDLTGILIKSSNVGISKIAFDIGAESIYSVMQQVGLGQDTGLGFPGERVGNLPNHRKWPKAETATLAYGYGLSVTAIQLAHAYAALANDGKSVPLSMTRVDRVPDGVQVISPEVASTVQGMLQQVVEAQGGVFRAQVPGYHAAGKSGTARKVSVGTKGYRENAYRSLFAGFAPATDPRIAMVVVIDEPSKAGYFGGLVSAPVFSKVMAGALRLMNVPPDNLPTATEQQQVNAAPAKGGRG
# experimental-protocol: Bocillin-FL fluorescence polarization competition binding, P. aeruginosa PBP3
# settings: Binding affinity to P. aeruginosa PBP3; fluorescence polarization competition binding assay using Bocillin-FL; read-out: P. aeruginosa PBP3 Potency
pIC50: −log10 of the molar value.
property-label: pIC50

Example molecules with recorded pIC50:
1) NS(=O)(=O)NC(C(=O)N[C@H]1Cc2cccc(C(=O)O)c2OB1O)c1ccc(P(=O)(O)O)cc1 (some centres unmarked) [Example 58] ... < 3.60
2) O=C(O)c1c(F)ccc2c1OB(O)[C@@H](NC(=O)[C@H](NC(=O)N1CCN(C3CCN(C(=O)c4ccc(F)c(O)c4Cl)CC3)C1=O)c1cc(F)c(O)c(O)c1Cl)C2 [Example 438] ... > 5.00
3) O=C(N[C@@H](C(=O)N[C@H]1Cc2cccc(C(=O)O)c2OB1O)c1ccc(P(=O)(O)O)cc1)c1cnc2cccn2c1 (single isomer, unassigned) [Example 499] ... > 5.00

Hi, could you look up pIC50 for each item in my list?
1. O=C(O)c1c(F)ccc2c1OB(O)[C@@H](NC(=O)[C@@H](NC(=O)N1CCN(C3CCN(C(=O)Nc4ccc(O)cc4)CC3)C1=O)c1cc(F)c(O)c(O)c1Cl)C2 (single isomer, unassigned) [Example 467]
2. O=C(NC(C(=O)N[C@H]1Cc2cccc(C(=O)O)c2OB1O)c1ccc(P(=O)(O)O)cc1)c1ccccn1 (some centres unmarked) [Example 32]
3. O=C(NCCCS(=O)(=O)N1CCN(C(=O)NC(C(=O)N[C@H]2Cc3ccc(F)c(C(=O)O)c3OB2O)c2cc(F)c(O)c(O)c2Cl)C1=O)Nc1ccc(O)cc1 (some centres unmarked) [Example 276]
4. CCN1CCN(C(=O)NC(C(=O)N[C@H]2Cc3cccc(C(=O)O)c3OB2O)c2ccc(P(=O)(O)O)c(F)c2O)C(=O)C1=O (some centres unmarked) [Example 198]
5. O=C(O)c1c(F)ccc2c1OB(O)[C@@H](NC(=O)C(NC(=O)N1CCN(C3CCN(C(=O)Nc4cc(O)ccc4Cl)CC3)C(=O)C1=O)c1cc(F)c(O)c(O)c1Cl)C2 (some centres unmarked) [Example 483]
6. O=C(O)c1cccc2c1OB(O)[C@@H](NC(=O)C(NC(=O)N1CCN(Cc3cc(F)c(O)c(O)c3Cl)C(=O)C1=O)c1ccc(P(=O)(O)O)cc1)C2 (some centres unmarked) [Example 164]

Response line:
> 5.00
> 5.00
> 5.00
4.30 to 5.00
> 5.00
> 5.00

Hi, could you look up pIC50 for each item in my list?
1. O=C(O)c1c(F)ccc2c1OB(O)[C@@H](NC(=O)C(NC(=O)N1CCN(C3CCN(S(=O)(=O)c4cccc(O)c4)CC3)C(=O)C1=O)c1cc(F)c(O)c(O)c1Cl)C2 (some centres unmarked) [Example 428]
2. O=C(NCCCN1CCN(C(=O)N[C@@H](C(=O)N[C@H]2Cc3ccc(F)c(C(=O)O)c3OB2O)c2cc(F)c(O)c(O)c2Cl)C(=O)C1=O)c1cccc(O)c1Cl [Example 303]

Response line:
1. > 5.00
2. > 5.00

###

# tested-target: A. baumannii PBP1a (Acinetobacter baumannii, UniProt A0ABX6CK30)
# Sequence (A0ABX6CK30 1-851): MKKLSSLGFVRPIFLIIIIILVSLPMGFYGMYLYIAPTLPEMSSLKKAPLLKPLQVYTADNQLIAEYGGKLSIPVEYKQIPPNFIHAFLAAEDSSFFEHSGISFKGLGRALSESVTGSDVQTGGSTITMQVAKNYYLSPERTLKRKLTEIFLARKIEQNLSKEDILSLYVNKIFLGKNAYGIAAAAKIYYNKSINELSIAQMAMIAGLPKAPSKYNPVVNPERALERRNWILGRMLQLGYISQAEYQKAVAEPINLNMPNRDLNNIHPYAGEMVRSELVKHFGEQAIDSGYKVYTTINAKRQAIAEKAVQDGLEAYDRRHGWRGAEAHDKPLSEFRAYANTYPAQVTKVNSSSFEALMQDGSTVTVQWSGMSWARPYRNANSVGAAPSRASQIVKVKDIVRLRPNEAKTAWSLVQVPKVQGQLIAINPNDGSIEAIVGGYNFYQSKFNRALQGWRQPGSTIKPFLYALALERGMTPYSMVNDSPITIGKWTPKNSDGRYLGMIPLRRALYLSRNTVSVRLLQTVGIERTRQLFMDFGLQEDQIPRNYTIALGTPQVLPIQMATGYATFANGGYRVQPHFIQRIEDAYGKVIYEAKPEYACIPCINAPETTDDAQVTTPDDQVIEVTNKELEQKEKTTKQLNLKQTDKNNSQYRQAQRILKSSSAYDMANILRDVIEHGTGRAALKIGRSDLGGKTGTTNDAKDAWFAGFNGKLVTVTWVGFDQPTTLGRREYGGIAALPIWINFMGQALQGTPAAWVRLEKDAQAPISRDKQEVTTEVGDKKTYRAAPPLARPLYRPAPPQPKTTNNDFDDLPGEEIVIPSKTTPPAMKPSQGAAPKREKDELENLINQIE
# experimental-protocol: Bocillin-FL competition binding via gel filtration, A. baumannii PBP1a
# settings: competition binding assay using Bocillin-FL via gel filtration; read-out: A. baumannii PBP1a Potency
property-label: EC50

Example molecules with recorded EC50:
1) O=C(O)c1c(F)ccc2c1OB(O)[C@@H](NC(=O)C(NC(=O)N1CCN(C3CCN(C(=O)Nc4cc(O)cc(Cl)c4)CC3)C(=O)C1=O)c1cc(F)c(O)c(O)c1Cl)C2 (some centres unmarked) [Example 484] ... < 10 µM
2) O=C(O)c1c(F)ccc2c1OB(O)[C@@H](NC(=O)[C@H](NC(=O)N1CCN(C3CCN(C(=O)Nc4ccc(O)cc4)CC3)C1=O)c1cc(F)c(O)c(O)c1Cl)C2 (single isomer, unassigned) [Example 468] ... < 10 µM
3) O=C(NCCCN1CCN(C(=O)N[C@@H](C(=O)N[C@H]2Cc3ccc(F)c(C(=O)O)c3OB2O)c2cc(F)c(O)c(O)c2Cl)C(=O)C1=O)c1ccc(O)cc1Cl (single isomer, unassigned) [Example 471] ... < 10 µM
4) O=C(O)c1c(F)ccc2c1OB(O)[C@@H](NC(=O)[C@H](NC(=O)N1CCN(C3CCN(C(=O)c4c(F)ccc(O)c4Cl)CC3)C1=O)c1cc(F)c(O)c(O)c1Cl)C2 (single isomer, unassigned) [Example 440] ... < 10 µM

Next molecule, EC50 to be filled in.
Prompt line: Value lookup for EC50; key = O=C(NCCS(=O)(=O)N1CCN(C(=O)N[C@H](C(=O)N[C@H]2Cc3ccc(F)c(C(=O)O)c3OB2O)c2ccc(P(=O)(O)O)cc2)C1=O)c1ccc(O)c(O)c1Cl [Example 167]
Response line: 50 to 250 µM

###

# System: N. gonorrhoeae WHO M
# experimental-protocol: Liquid broth MIC in Fastidious broth
# settings: Neisseria gonorrhoeae, read-out: Minimum Inhibitory Concentration (MIC), N. gonorrhoeae WHO M
Provide the recorded MIC for the entries that follow.

Example molecules with recorded MIC:
1. CCN1CCN(C(=O)NC(C(=O)N[C@H]2Cc3cccc(C(=O)O)c3OB2O)c2ccc(CP(=O)(O)O)cc2)C(=O)C1=O (stereo partly drawn) ... < 1 mg/L
2. CN(CCN1CCN(C(=O)N[C@@H](C(=O)N[C@H]2Cc3ccc(F)c(C(=O)O)c3OB2O)c2cc(F)c(O)c(O)c2Cl)C(=O)C1=O)Cc1cccnc1 ... 4 to 8 mg/L

Next molecule, MIC to be filled in.
Prompt line: Value lookup for MIC; key = Nc1nc(C(=O)N[C@@H](C(=O)N[C@H]2Cc3cccc(C(=O)O)c3OB2O)c2ccc(P(=O)(O)O)cc2)cs1 (racemic)
Response line: < 1 mg/L

The measurements presented in this section are drawn from patent US20240270762A1.
